- target.or.system: T1, human BCMA (B-cell maturation antigen, CD269) expressed on cells (human, UniProt Q02223 1-184)
- T1 construct: Endogenous on myeloma lines (NCI-H929, U266, JJN3) or a full-length clone transfected into HEK 293 cells; also called hBCMA; BCMA expressed on NCI-H929 cells
- T1 sequence: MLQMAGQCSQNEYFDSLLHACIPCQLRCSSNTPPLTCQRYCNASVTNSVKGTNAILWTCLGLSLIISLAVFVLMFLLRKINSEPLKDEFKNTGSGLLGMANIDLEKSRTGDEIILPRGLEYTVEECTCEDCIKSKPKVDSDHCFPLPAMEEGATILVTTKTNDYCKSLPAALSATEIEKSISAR
- protocol.text: cell binding, NCI-H929 cells expressing BCMA, 3-pt assay

[
  {
    "binder": "hSG16.45 vH6 vK2 (antibody, V domains shown, also called hSG16.45 22) VH: EVQLVESGGGLVQPGRSLRLSCAASGFTFNDHWMTWVRQAPGKGLEWVSGITNTGGATYYADSVKGRFTISRDNAKNSLYLQMNSLRAEDTALYYCTSPGLYFDYWGQGTMVTVSS VL: EIVLTQSPGTLSLSPGERATLSCRASSSVSVMYWYQQKPGQAPRLLIYSTSSLASGIPDRFSGSGSGTDFTLTISRLEPEDFAVYYCHQWSSDPPTFGQGTKLEIKR",
    "binding result": "binds"
  },
  {
    "binder": "hSG16.17 vH1 vK2 (antibody, V domains shown, also called hSG16.17 1) VH: QVQLVQSRAEVKKPGASVKLSCKASGYTFTDYYIHWVRQAPGQGLEWIGYINPNSGYTKYNENFKTRATMTADKSINTAYVELSRLRSDDTAVYFCTRYMWERVTGFFDFWGQGTMVTVSS VL: DIQMTQSPSSVSASVGDRVTITCLASEDISDDLAWYQQKPGKAPKVLVYTTSSLQSGVPSRFSGSGSGTDFTLTISSLQPEDFATYFCQQTYKFPPTFGGGTKVEIKR",
    "binding result": "binds"
  },
  {
    "binder": "hSG16.17 vH6 vK5 (antibody, V domains shown, also called hSG16.17 24) VH: QVQLVQSRAEVKKPGASVKLSCKASGYTFTDYYMHWVRQAPGQGLEWIGIINPNSGYTSYAQKFQGRVTMTADKSTNTAYVELSSLRSEDTAVYFCTRYMWERVTGFFDFWGQGTMVTVSS VL: DIQMTQSPSSVSASVGDRVTITCRASEDISDDLAWYQQKSGKAPKVLVYTTSSLQSGVPSRFSGSGSGTDFTLTISSLQPEDFATYFCQQTYKFPPTFGGGTKVEIKR",
    "binding result": "binds"
  }
]
